run description: in vitro
applied conditions: human, Caco-2, pH 7.4
No end group written: not given here.
parameter: Papp A→B at 2 h, 5 mM (×10⁻⁶ cm/s)
Output spec: scalar in ×10⁻⁶ cm/s, unitless text.

For orientation, consider the following solved cases.
FFSDK [FFSDK, Phe-Phe-Ser-Asp-Lys]	0.491
RYPLGYL [RYPLGYL, Arg-Tyr-Pro-Leu-Gly-Tyr-Leu]	0.161

Exam item: Give the value of Papp A→B at 2 h, 5 mM reported for the following: KHPIK [KHPIK, Lys-His-Pro-Ile- Lys]
Marked response: 0.322

Exam item: Give the value of Papp A→B at 2 h, 5 mM reported for the following: KHPIKH [KHPIKH, Lys-His-Pro-Ile-Lys-His]
Marked response: 0.26

Value source: paper PMC9857510
